assay: chemical genetic growth profiling, strain panel (AID 1159580);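 further: tested at 20 µM; growth read once vehicle control cultures reached saturation at 30 °C; 1 = growth at the plate median or of vehicle wells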; conditions: S. cerevisiae deletion strains, growth OD, locus YBR023C, strain chs3, stronger effect = lower value
In all, about 5,500 compounds went through this assay and about 2,000 (36%) were called active. Another 18% or so got no clear call; they are omitted. This is one part of the list.
The compounds listed here are annotated with their normalized growth.
ASSAY ENDPOINT: normalized growth

>  <COMPOUND>
NC1C[C@H]1c1ccccc1 (stereo partly drawn)

>  <VAL>
0.983

$$$$
>  <COMPOUND>
COc1cc(-c2oc3cc(O)ccc3c(=O)c2O)ccc1O

>  <VAL>
0.861

$$$$
>  <COMPOUND>
COc1ccc(C(=O)c2ccccc2)c(O)c1O

>  <VAL>
0.969

$$$$

----------
assay: chemical genetic growth profiling, strain panel (AID 1159580);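 further: tested at 20 µM; growth read once vehicle control cultures reached saturation at 30 °C; 1 = growth at the plate median or of vehicle wells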; conditions: S. cerevisiae deletion strains, growth OD, locus YEL061C, strain CIN8
The campaign covered roughly 5,500 compounds. About 2,000 (36%) were called active. Roughly 18% stayed inconclusive and do not appear here. No stated cut-off is given here; in the data, active means normalized growth mostly below about 0.91 (no sharp cut-off); inconclusive means no clear call, values can overlap the other calls; inactive means mostly above about 0.92. The list shows a part of the results.
Classes used: YES = active, NO = inactive

>  <MOLECULE>
C=CCn1c(COc2c(Br)cc(C)c3c2CCC3)n[nH]c1=S

>  <CLASS ASSIGNMENT>
YES

$$$$
>  <MOLECULE>
CC(=O)CC1CCCCN1 (configuration not stated)

>  <CLASS ASSIGNMENT>
NO

$$$$
>  <MOLECULE>
Cc1ccc(=O)n(Cc2ccc(Cl)c(Cl)c2)n1

>  <CLASS ASSIGNMENT>
NO

$$$$
>  <MOLECULE>
COc1ccc2c(c1)[C@]13CCCC[C@H]1[C@H](C2)N(C)CC3

>  <CLASS ASSIGNMENT>
NO

$$$$
>  <MOLECULE>
CC1=C(O)C(=O)C=C2C1=CC=C1[C@@]2(C)CC[C@@]2(C)[C@@H]3C[C@](C)(C(=O)O)CC[C@]3(C)CC[C@]12C

>  <CLASS ASSIGNMENT>
YES

$$$$
>  <MOLECULE>
COc1cc(NS(=O)(=O)c2ccc(N)cc2)ncn1

>  <CLASS ASSIGNMENT>
NO

$$$$
>  <MOLECULE>
Cc1onc(-c2c(Cl)cccc2Cl)c1C(=O)N[C@@H]1C(=O)N2[C@@H]1SC(C)(C)[C@@H]2C(=O)O

>  <CLASS ASSIGNMENT>
NO

$$$$
>  <MOLECULE>
NS(=O)(=O)c1ccc(-n2ncc3ccccc3c2=O)cc1

>  <CLASS ASSIGNMENT>
NO

$$$$
>  <MOLECULE>
O=C(CCBr)N1CCN(C(=O)CCBr)CC1

>  <CLASS ASSIGNMENT>
NO

$$$$
>  <MOLECULE>
CC(N)C(O)c1ccc(O)c(O)c1 (configuration not stated)

>  <CLASS ASSIGNMENT>
NO

$$$$
>  <MOLECULE>
CCOc1ccc(NC(C)=O)cc1

>  <CLASS ASSIGNMENT>
NO

$$$$
>  <MOLECULE>
CCC1C(=O)OCC1Cc1cncn1C (configuration not stated)

>  <CLASS ASSIGNMENT>
NO

$$$$
>  <MOLECULE>
CN1C(=O)CCS(=O)(=O)C1c1ccc(Cl)cc1 (configuration not stated)

>  <CLASS ASSIGNMENT>
NO

$$$$
>  <MOLECULE>
COc1ccc2c(c1OC)OC[C@@H](c1ccc(OC)c(OC)c1OC)C2

>  <CLASS ASSIGNMENT>
NO

$$$$
>  <MOLECULE>
Cc1onc(-c2ccccc2Cl)c1C(=O)N[C@@H]1C(=O)N2[C@@H]1SC(C)(C)[C@@H]2C(=O)O

>  <CLASS ASSIGNMENT>
NO

$$$$
>  <MOLECULE>
CC1=NN(c2ccccc2)C(=O)C1

>  <CLASS ASSIGNMENT>
NO

$$$$
>  <MOLECULE>
CC(C)S(=O)(=O)c1csc(C(N)=O)c1Cl

>  <CLASS ASSIGNMENT>
NO

$$$$
>  <MOLECULE>
COc1ccc([C@H]2COc3c(ccc(O)c3OC)C2)c(OC)c1O

>  <CLASS ASSIGNMENT>
NO

$$$$
>  <MOLECULE>
NC(N)=NC(N)=Nc1ccccc1

>  <CLASS ASSIGNMENT>
NO

$$$$
>  <MOLECULE>
Cc1onc(-c2ccccc2)c1C(=O)NC1C(=O)N2[C@@H]1SC(C)(C)[C@@H]2C(=O)O (some centres not stated)

>  <CLASS ASSIGNMENT>
NO

$$$$
>  <MOLECULE>
CO[C@H]1C[C@H](O[C@H]2[C@H](C)[C@@H](OC3O[C@H](C)C[C@H](N(C)C)[C@H]3OC(C)=O)[C@@H](C)C[C@]3(CO3)C(=O)[C@H](C)[C@@H](OC(C)=O)[C@@H](C)[C@@H](C)OC(=O)[C@@H]2C)O[C@@H](C)[C@@H]1OC(C)=O (some centres not stated)

>  <CLASS ASSIGNMENT>
NO

$$$$
>  <MOLECULE>
COC(=O)[C@]1(C)CC[C@]2(C)CC[C@]3(C)C4=CC=C5C(=CC(=O)C(O)=C5C)[C@]4(C)CC[C@@]3(C)[C@@H]2C1

>  <CLASS ASSIGNMENT>
YES

$$$$
>  <MOLECULE>
COC(=O)c1scc(S(=O)(=O)C(C)C)c1N/N=C(/C#N)C(=O)c1ccccc1

>  <CLASS ASSIGNMENT>
NO

$$$$
>  <MOLECULE>
CC1(C)S[C@@H]2[C@H](NC(=O)Cc3ccccc3)C(=O)N2[C@H]1C(=O)O

>  <CLASS ASSIGNMENT>
NO

$$$$
>  <MOLECULE>
O=C(Nc1cccnc1)c1cccc(Cl)c1Cl

>  <CLASS ASSIGNMENT>
NO

$$$$
>  <MOLECULE>
OC(c1cc(C(F)(F)F)nc2c(C(F)(F)F)cccc12)C1CCCCN1 (configuration not stated)

>  <CLASS ASSIGNMENT>
NO

$$$$
>  <MOLECULE>
O=C(OC[C@H]1O[C@H](OC(=O)c2cc(O)c(O)c(OC(=O)c3cc(O)c(O)c(O)c3)c2)[C@H](OC(=O)c2cc(O)c(O)c(OC(=O)c3cc(O)c(O)c(O)c3)c2)[C@@H](OC(=O)c2cc(O)c(O)c(OC(=O)c3cc(O)c(O)c(O)c3)c2)[C@@H]1OC(=O)c1cc(O)c(O)c(OC(=O)c2cc(O)c(O)c(O)c2)c1)c1cc(O)c(O)c(OC(=O)c2cc(O)c(O)c(O)c2)c1

>  <CLASS ASSIGNMENT>
YES

$$$$
